tested on: A. fumigatus CEA10 reference strain; test: Fluconazole potentiator screen: MIC by CLSI microbroth dilution with and without fluconazole; assay type: cell-based, Aspergillus fumigatus; settings: with 32 μg/ml fluconazole; normoxia; GMM, 18 h, 37 °C

molecule: O=S(=O)(c1ccc(Cl)s1)N1CCC(Cc2ccc(CN3CCOCC3)cc2)CC1
unit-spec: µg/mL
value-prefix: =
MIC (ug/mL) (+) Fluc: 0.18

molecule: CN1CCc2cc(CC3CCN(S(=O)(=O)c4ccc(F)cc4)CC3)ccc2C1
unit-spec: µg/mL
value-prefix: =
MIC (ug/mL) (+) Fluc: 1.26

molecule: O=S(=O)(c1ccc(F)cc1)N1CCC(Cc2ccc(Cc3ccncc3)cc2)CC1
unit-spec: µg/mL
value-prefix: =
MIC (ug/mL) (+) Fluc: 6.37

molecule: O=S(=O)(c1cccc(Cl)c1)N1CCC2(CC1)CC(CCOc1ccncc1)CCO2 (stereo not shown)
unit-spec: µg/mL
value-prefix: =
MIC (ug/mL) (+) Fluc: 6.38

molecule: CC(C)(C)c1ccc(C(=O)N2CCC(Cc3ccc(COc4ccncc4)cc3)CC2)cc1
unit-spec: µg/mL
value-prefix: >
MIC (ug/mL) (+) Fluc: 22

molecule: CC1CC(Cc2ccc(CN3CCOCC3)cc2)CCN1S(=O)(=O)c1cccc(F)c1 (stereo not shown)
unit-spec: µg/mL
value-prefix: =
MIC (ug/mL) (+) Fluc: 1.40

molecule: N#Cc1ccc(OCc2ccc(CC3CCN(C(=O)c4ccsc4)CC3)cc2)cc1
unit-spec: µg/mL
value-prefix: >
MIC (ug/mL) (+) Fluc: 83

molecule: O=C(c1ccsc1)N1CCN(Cc2ccc(COc3ccncc3)cc2)CC1
unit-spec: µg/mL
value-prefix: =
MIC (ug/mL) (+) Fluc: 0.50

molecule: O=S(=O)(c1ccc(F)cc1)C1CCN(Cc2ccc(CN3CCOCC3)cc2)CC1
unit-spec: µg/mL
value-prefix: >
MIC (ug/mL) (+) Fluc: 20

molecule: O=C(c1ccccc1)N1CCC(Cc2ccc(COc3ccncc3)cc2)CC1
unit-spec: µg/mL
value-prefix: >
MIC (ug/mL) (+) Fluc: 15

molecule: O=C1c2ccsc2CCN1Cc1ccc(COc2ccncc2)cc1
unit-spec: µg/mL
value-prefix: =
MIC (ug/mL) (+) Fluc: 4.92

molecule: O=S(=O)(c1ccc(F)cc1)N1CC2(CC(Cc3ccc(CN4CCOCC4)cc3)C2)C1
unit-spec: µg/mL
value-prefix: =
MIC (ug/mL) (+) Fluc: 11.00

molecule: O=C(c1ccccn1)N1CCC(Cc2ccc(COc3ccncc3)cc2)CC1
unit-spec: µg/mL
value-prefix: =
MIC (ug/mL) (+) Fluc: 15.00

molecule: NCc1ccc(OCc2ccc(CC3CCN(C(=O)c4ccsc4)CC3)cc2)cc1
unit-spec: µg/mL
value-prefix: >
MIC (ug/mL) (+) Fluc: 21

molecule: O=S(=O)(c1ccc(F)cc1)N1CCC(Cc2ccc(CN3CCOCC3)cc2F)CC1
unit-spec: µg/mL
value-prefix: =
MIC (ug/mL) (+) Fluc: 0.17

molecule: O=S(=O)(c1ccccn1)N1CCC2(CC1)CC(CCOc1ccncc1)CCO2 (stereo not shown)
unit-spec: µg/mL
value-prefix: >
MIC (ug/mL) (+) Fluc: 16

molecule: O=C(NC1CCN(Cc2ccc(COc3ccncc3)cc2)CC1)c1ccsc1
unit-spec: µg/mL
value-prefix: >
MIC (ug/mL) (+) Fluc: 20

molecule: O=C(c1ccsc1)N1CCC(Cc2ccc(COc3ccncn3)cc2)CC1
unit-spec: µg/mL
value-prefix: >
MIC (ug/mL) (+) Fluc: 15

molecule: O=S(=O)(c1ccc(F)cc1)N1CCC(Cc2ccc(CC3CCOCC3)cc2)CC1
unit-spec: µg/mL
value-prefix: >
MIC (ug/mL) (+) Fluc: 21
